# targetOrSystem: DNMT1 (Homo sapiens)
# Sequence (P26358 whole entry, looked up): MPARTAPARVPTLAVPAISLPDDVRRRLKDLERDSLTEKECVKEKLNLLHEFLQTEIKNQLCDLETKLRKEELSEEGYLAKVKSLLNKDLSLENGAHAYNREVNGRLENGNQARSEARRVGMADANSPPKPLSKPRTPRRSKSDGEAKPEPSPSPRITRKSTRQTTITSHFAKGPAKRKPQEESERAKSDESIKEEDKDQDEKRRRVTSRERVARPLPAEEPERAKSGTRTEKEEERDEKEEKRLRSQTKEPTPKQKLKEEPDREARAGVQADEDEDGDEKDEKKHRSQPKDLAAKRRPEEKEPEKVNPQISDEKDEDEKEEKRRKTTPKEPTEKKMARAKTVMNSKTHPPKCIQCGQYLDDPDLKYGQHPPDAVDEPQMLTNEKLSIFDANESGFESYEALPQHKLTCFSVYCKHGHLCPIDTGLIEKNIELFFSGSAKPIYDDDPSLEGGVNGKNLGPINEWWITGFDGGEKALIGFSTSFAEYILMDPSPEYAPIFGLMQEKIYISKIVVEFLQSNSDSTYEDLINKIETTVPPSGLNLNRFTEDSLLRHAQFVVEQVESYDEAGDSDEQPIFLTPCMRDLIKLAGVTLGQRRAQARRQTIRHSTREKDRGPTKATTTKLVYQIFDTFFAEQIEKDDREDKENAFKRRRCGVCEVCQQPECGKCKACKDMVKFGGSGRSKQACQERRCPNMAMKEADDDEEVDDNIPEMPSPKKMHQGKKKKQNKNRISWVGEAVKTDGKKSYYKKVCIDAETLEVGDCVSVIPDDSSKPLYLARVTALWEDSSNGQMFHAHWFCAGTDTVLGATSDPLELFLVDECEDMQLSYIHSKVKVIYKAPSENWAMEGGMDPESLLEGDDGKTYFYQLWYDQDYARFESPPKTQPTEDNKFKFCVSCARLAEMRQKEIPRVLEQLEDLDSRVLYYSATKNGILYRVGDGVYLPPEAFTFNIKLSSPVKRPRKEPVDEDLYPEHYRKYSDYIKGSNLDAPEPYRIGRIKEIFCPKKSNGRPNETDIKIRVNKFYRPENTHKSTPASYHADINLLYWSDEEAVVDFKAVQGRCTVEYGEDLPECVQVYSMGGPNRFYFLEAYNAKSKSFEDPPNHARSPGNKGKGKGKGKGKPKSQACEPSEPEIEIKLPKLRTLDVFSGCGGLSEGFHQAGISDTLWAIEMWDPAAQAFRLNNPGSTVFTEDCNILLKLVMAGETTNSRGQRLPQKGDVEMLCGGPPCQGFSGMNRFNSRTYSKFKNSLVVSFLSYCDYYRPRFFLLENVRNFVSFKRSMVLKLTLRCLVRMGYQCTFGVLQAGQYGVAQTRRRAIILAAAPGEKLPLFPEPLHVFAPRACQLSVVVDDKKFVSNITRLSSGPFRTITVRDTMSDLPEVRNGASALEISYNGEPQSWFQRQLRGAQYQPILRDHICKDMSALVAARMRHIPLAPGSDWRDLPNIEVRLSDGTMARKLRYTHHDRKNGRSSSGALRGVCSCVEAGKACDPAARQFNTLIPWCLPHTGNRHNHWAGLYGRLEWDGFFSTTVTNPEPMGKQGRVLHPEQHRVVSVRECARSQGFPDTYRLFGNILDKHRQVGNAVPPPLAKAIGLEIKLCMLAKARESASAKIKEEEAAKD
# procedureText: DNMT1 biochemical activity, breaklight assay and/or SPA assay
# conditionSet: binned activity in either the breaklight or the SPA assay; read-out: DNMT1 BioChemical (pIC50 category) (converted)
IC50 for assorted compounds

Some compounds with known IC50 results, for comparison:
CCc1c(C#N)c(N)nc(SC(C(N)=O)c2ccccc2)c1C#N (stereo not shown) [Example 1] :: 1000 to 31600 nM
CCc1c(C#N)c(SC(C(N)=O)c2ccccc2)nc(N2CCNC(=O)C2)c1C#N (stereo not shown) [Example 50] :: 316 to 1000 nM
CCc1c(C#N)c(SCc2ccc(CNC(=O)CO)cc2)nc(N2CCC(O)C2)c1C#N (stereo not shown) [Example 367] :: 316 to 1000 nM
CCc1c(C#N)c(SC(C(N)=O)c2ccccc2)nc(N2CCC(=O)CC2)c1C#N (stereo not shown) [Example 59] :: 316 to 1000 nM

Output measured IC50 for this item: CCc1c(C#N)c(SC(C(N)=O)c2cccc(P(C)(C)=O)c2)nc(N2CC[C@H](O)C2)c1C#N (stereo partly shown) [Example 420]
316 to 1000 nM

Annotate the compound CCCN1CCN(c2nc(SC(C(N)=O)c3ccccc3)c(C#N)c(CC)c2C#N)CC1 (stereo not shown) [Example 12] with its measured IC50.
316 to 1000 nM

Find the measured IC50 of CCc1c(C#N)c(SC(C(N)=O)c2ccccc2)nc(N2CCC(OP(=O)(O)O)C2)c1C#N (stereo not shown) [Example 150] and report it.
1000 to 31600 nM

Return IC50 for the following compound: CCc1c(C#N)c(SCc2ccc(CNC(C)=O)cc2)nc(N2CCNC(=O)C2)c1C#N [Example 329]
316 to 1000 nM

Check the records and state IC50 for CCc1c(C#N)c(SCc2ccc(CNC(=O)CO)cc2)nc(N(C)CC(N)=O)c1C#N [Example 371]
316 to 1000 nM

Tell us which IC50 value is on record for CCc1c(C#N)c(SCc2ccc(C#N)c(C)c2)nc(N2CCCN(C)CC2)c1C#N [Example 295]
316 to 1000 nM

Data origin: patent US10975056B2
